- target-system: human Nav1.8 (Homo sapiens, UniProt Q9Y5Y9)
- Construct: expressed in transfected cells; host or cells: HEK293 (HEK293-Nav1.8)
- Sequence (Q9Y5Y9 whole entry): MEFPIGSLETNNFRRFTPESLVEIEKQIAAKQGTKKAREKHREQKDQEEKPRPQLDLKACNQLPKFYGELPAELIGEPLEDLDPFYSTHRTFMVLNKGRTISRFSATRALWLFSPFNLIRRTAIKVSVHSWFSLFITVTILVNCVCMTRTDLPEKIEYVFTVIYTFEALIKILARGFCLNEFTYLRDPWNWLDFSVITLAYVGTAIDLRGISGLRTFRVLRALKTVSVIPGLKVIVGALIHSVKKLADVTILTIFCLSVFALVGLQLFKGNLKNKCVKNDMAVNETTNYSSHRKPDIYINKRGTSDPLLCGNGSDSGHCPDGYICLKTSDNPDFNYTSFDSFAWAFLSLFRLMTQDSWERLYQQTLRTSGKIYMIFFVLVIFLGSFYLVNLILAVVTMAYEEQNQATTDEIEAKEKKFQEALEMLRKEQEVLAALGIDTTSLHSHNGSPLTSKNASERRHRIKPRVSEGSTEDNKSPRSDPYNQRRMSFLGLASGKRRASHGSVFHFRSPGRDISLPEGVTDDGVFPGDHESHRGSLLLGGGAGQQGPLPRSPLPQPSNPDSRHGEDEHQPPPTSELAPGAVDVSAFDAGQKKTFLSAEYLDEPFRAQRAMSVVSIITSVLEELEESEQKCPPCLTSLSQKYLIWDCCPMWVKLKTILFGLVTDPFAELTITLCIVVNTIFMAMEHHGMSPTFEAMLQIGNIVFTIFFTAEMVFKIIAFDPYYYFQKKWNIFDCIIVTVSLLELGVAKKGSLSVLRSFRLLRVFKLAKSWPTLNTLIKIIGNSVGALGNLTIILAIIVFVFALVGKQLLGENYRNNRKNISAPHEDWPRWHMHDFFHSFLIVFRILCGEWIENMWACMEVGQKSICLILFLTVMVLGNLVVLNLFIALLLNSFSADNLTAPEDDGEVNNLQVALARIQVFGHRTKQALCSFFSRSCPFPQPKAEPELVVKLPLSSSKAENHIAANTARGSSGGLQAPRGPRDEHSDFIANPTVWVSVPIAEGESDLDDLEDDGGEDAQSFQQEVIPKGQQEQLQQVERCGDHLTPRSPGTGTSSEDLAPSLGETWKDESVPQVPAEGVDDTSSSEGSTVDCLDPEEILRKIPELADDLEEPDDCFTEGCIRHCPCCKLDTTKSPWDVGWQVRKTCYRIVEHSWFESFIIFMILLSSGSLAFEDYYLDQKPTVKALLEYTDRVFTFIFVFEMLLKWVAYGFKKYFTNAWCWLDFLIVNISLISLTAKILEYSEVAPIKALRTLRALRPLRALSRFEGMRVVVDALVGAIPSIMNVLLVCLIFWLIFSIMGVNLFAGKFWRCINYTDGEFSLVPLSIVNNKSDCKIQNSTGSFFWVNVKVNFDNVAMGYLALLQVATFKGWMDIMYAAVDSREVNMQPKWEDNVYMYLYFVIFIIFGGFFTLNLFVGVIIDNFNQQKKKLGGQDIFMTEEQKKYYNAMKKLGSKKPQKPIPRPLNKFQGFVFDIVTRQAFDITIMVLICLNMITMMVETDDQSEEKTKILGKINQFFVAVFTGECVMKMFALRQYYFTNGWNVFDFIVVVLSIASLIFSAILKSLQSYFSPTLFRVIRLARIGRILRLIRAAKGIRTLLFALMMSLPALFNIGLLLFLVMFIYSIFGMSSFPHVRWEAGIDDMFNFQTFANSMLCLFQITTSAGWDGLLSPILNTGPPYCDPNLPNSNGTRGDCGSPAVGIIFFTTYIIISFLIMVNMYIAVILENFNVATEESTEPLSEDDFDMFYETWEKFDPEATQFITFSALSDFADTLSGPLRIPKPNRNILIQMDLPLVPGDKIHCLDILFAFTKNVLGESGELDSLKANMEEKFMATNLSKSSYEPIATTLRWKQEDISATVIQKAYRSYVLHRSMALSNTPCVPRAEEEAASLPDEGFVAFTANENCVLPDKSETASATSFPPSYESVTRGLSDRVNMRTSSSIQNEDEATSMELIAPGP
- Sequence (Q07699 19-218 partner): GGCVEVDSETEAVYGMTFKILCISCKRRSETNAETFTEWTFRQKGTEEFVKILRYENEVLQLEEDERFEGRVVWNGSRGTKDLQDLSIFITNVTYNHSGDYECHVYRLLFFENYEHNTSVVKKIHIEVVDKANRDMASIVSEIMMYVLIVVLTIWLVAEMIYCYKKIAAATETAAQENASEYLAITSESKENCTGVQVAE
- protocol-text: Nav1.8 sodium channels assay, QPatch 48 HTX electrophysiology in HEK293-Nav1.8 cells
- Format: cell-based
- condition-description: at least one set of experimental runs; read-out: average pIC50 value against Nav1.8 (converted)
readout-type: IC50

{"columns": ["compound", "target-system", "IC50"],
 "data": [
  ["Cc1cc(OC(F)(F)F)ccc1N1CN(c2ccc(=O)[nH]c2C)C(=O)c2c1ccc(Cl)c2F [Example 74]", "human Nav1.8 (Homo sapiens, UniProt Q9Y5Y9)", "≤ 100 nM"],
  ["Cc1[nH]c(=O)ccc1N1CN(c2ccc(F)cc2C(C)C)c2cc(C#N)ccc2C1=O [Example 161]", "human Nav1.8 (Homo sapiens, UniProt Q9Y5Y9)", "≤ 100 nM"]
]}

# ---- query compound ----
Problem: Please look up its IC50: Cc1cc(F)ccc1N1CN(c2ccc(=O)[nH]c2C(C)C)C(=O)c2ccc(C(F)(F)F)cc21 [Example 198]
Solution: ≤ 100 nM

----------
Documented IC50 across a set of compounds
- target-system: human Nav1.8 (Homo sapiens)
- Construct: expressed in transfected cells; host or cells: HEK293 (HEK293-Nav1.8)
- protocol-text: Nav1.8 sodium channels assay, QPatch 48 HTX electrophysiology in HEK293-Nav1.8 cells
- Type: cell-based
- condition-description: at least one set of experimental runs; read-out: average pIC50 value against Nav1.8 (converted)

Here is how some compounds turned out for IC50.
{"columns": ["compound-smiles", "IC50"],
 "data": [
  ["Cc1cc(F)ccc1N1CN(c2ccc(=O)[nH]c2C)C(=O)c2cc(Cl)c(Cl)nc21", "≤ 100 nM"],
  ["Cc1cc(Cl)ccc1N1CN(c2ccc(=O)[nH]c2C)C(=O)c2cc(C(F)(F)F)cnc21", "126 to 631 nM"],
  ["Cc1cc(F)ccc1N1CN(c2ccc(=O)n(C)c2C)C(=O)c2cc(C(F)(F)F)ccc21", "126 to 631 nM"],
  ["CNc1cc(F)ccc1N1CN(c2ccc(=O)[nH]c2C)C(=O)c2cc(Cl)ccc21", "≤ 100 nM"]
]}

# ---- query compound ----
Problem: Please look up its IC50: "Cc1[nH]c(=O)ccc1N1CN([C@@H]2CCOC[C@@H]2C)c2cc(C(F)(F)F)ccc2C1=O"
Solution: 794 to 7940 nM

----------
- target-system: human Nav1.8 (Homo sapiens, UniProt Q9Y5Y9)
- Construct: expressed in transfected cells; host or cells: HEK293 (HEK293-Nav1.8)
- protocol-text: Nav1.8 sodium channels assay, QPatch 48 HTX electrophysiology in HEK293-Nav1.8 cells
- Assay type: cell-based
- condition-description: at least one set of experimental runs; read-out: average pIC50 value against Nav1.8 (converted)
Documented IC50 across a set of molecules

{"columns": ["molecule", "readout-type", "result"],
 "data": [
  ["Cc1[nH]c(=O)ccc1N1CN(c2cccc(C(F)(F)F)c2C)c2ncc(C(F)(F)F)cc2C1=O [Example 174]", "IC50", "126 to 631 nM"],
  ["Cc1cc(F)ccc1N1CN(c2cc(F)c(=O)[nH]c2C)C(=O)c2cc(C(F)(F)F)ccc21 [Example 131]", "IC50", "≤ 100 nM"]
]}

# ---- query molecule ----
Problem: Please look up its IC50: O=C1c2ccc(C(F)(F)F)cc2N(C2CCCCC2)CN1c1ccc(=O)[nH]c1 [Example 37]
Solution: 794 to 7940 nM

----------
- target-system: human Nav1.8 (Homo sapiens)
- Construct: expressed in transfected cells; host or cells: HEK293 (HEK293-Nav1.8)
- protocol-text: Nav1.8 sodium channels assay, QPatch 48 HTX electrophysiology in HEK293-Nav1.8 cells
- Format: cell-based
- condition-description: at least one set of experimental runs; read-out: average pIC50 value against Nav1.8 (converted)
Documented IC50 across a set of molecules

{"columns": ["compound-smiles", "IC50"],
 "data": [
  ["Cc1cc(F)ccc1N1CN(c2c[nH]c(=O)nc2N)C(=O)c2cc(C(F)(F)F)ccc21", "126 to 631 nM"],
  ["Cc1cc(F)ccc1N1CN(c2ccc(=O)[nH]c2C)C(=O)c2cc(C#N)c(Cl)cc21", "≤ 100 nM"]
]}

Problem: What measured IC50 is associated with "Cc1cc(F)ccc1N1CN(c2ccc(=O)[nH]c2C)C(=O)c2cc(F)c(OC(F)(F)F)cc21" on human Nav1.8 (Homo sapiens)?
Solution: ≤ 100 nM

----------
- target-system: human Nav1.8 (Homo sapiens)
- Construct: expressed in transfected cells; host or cells: HEK293 (HEK293-Nav1.8)
- protocol-text: Nav1.8 sodium channels assay, QPatch 48 HTX electrophysiology in HEK293-Nav1.8 cells
- Type: cell-based
- condition-description: at least one set of experimental runs; read-out: average pIC50 value against Nav1.8 (converted)
Documented IC50 across a set of compounds

Here is how some compounds turned out for IC50.
{"columns": ["compound", "result"],
 "data": [
  ["Cc1cc(F)ccc1N1CN(c2ccc(=O)[nH]c2C)C(=O)c2c1ccc(Cl)c2F", "≤ 100 nM"],
  ["Cc1[nH]c(=O)ccc1N1CN(c2ccc(F)cc2)c2cc(C(F)(F)F)ccc2C1=O", "126 to 631 nM"],
  ["Cc1[nH]c(=O)ccc1N1CN(c2ccc(F)cc2C(C)C)c2ccc(C(F)(F)F)cc2C1=O", "≤ 100 nM"],
  ["COc1cc2c(cc1C(F)(F)F)N(c1ccc(F)cc1C)CN(c1ccc(=O)[nH]c1C)C2=O", "≤ 100 nM"]
]}

Problem: Please look up its IC50: "Cc1cc(F)ccc1N1CN(c2cnc(=O)[nH]c2C)C(=O)c2ccc(C(F)(F)F)cc21"
Solution: ≤ 100 nM

Problem: Cool, now "Cc1ccc(N2CN(c3ccc(=O)[nH]c3C)C(=O)c3cc(Cl)ccc32)c(O)c1"
Solution: 794 to 7940 nM

Problem: Cool, now "Cc1ccccc1N1CN(c2ccc(=O)[nH]c2C)C(=O)c2ccc(C(F)(F)F)cc21"
Solution: ≤ 100 nM

Problem: Cool, now "Cc1cc(F)ccc1N1CN(c2cc[nH]c(=O)c2)C(=O)c2c1ccc(Cl)c2F"
Solution: 794 to 7940 nM

Problem: Cool, now Cc1cc(F)ccc1N1CN(C2CCS(=O)(=O)C2)C(=O)c2cc(C(F)(F)F)ccc21 (stereo not drawn)
Solution: 794 to 7940 nM

Problem: Cool, now "Cc1cc(F)ccc1N1CN(c2ccc(=O)[nH]c2NCCO)C(=O)c2ccc(C(F)(F)F)cc21"
Solution: 126 to 631 nM

Problem: Cool, now "Cc1cc(F)ccc1N1CN(c2ccc(=O)[nH]c2C)C(=O)c2cc(Cl)c(F)cc21"
Solution: ≤ 100 nM

Problem: Cool, now "Cc1[nH]c(=O)ccc1N1CN([C@H]2CCOC[C@H]2C)c2cc(C(F)(F)F)ccc2C1=O"
Solution: 126 to 631 nM

Problem: Cool, now "Cc1cc(F)ccc1N1CN(c2ccc(=O)[nH]c2C)C(=O)c2ccc(C(F)(F)CO)cc21"
Solution: 794 to 7940 nM

Problem: Cool, now "CCc1cc(F)ccc1N1CN(c2ccc(=O)[nH]c2C)C(=O)c2cc(F)ccc21"
Solution: ≤ 100 nM

Problem: Cool, now "Cc1cc(F)ccc1N1CN(c2cc(=O)[nH]n2C)C(=O)c2ccc(C(F)(F)F)cc21"
Solution: 126 to 631 nM

Problem: Cool, now "Cc1cc(F)ccc1N1CN(c2ccc(=O)[nH]c2C)C(=O)c2ccc(C(F)F)cc21"
Solution: ≤ 100 nM

Problem: Cool, now "Cc1[nH]c(=O)ccc1N1CN(c2ccc(F)c(O)c2C)c2cc(C(F)(F)F)ccc2C1=O"
Solution: 126 to 631 nM

Problem: Cool, now "Cc1[nH]c(=O)ccc1N1CN(c2ccc(F)cc2C(C)C)c2cc(C(F)F)ccc2C1=O"
Solution: ≤ 100 nM

Problem: Cool, now "CCc1cc(F)ccc1N1CN(c2ccc(=O)[nH]c2C)C(=O)c2cc(C(F)(F)F)cnc21"
Solution: ≤ 100 nM

Problem: Cool, now "COc1ccc(N2CN(c3ccc(F)cc3C)c3ccc(C(F)(F)F)cc3C2=O)c(C)n1"
Solution: 794 to 7940 nM

----------
Documented IC50 across a set of compounds
- target-system: human Nav1.8 (Homo sapiens, UniProt Q9Y5Y9)
- Construct: expressed in transfected cells; host or cells: HEK293 (HEK293-Nav1.8)
- protocol-text: Nav1.8 sodium channels assay, QPatch 48 HTX electrophysiology in HEK293-Nav1.8 cells
- Type: cell-based
- condition-description: at least one set of experimental runs; read-out: average pIC50 value against Nav1.8 (converted)

Here is how some compounds turned out for IC50.
{"columns": ["compound-smiles", "IC50"],
 "data": [
  ["Cc1cc(F)ccc1N1CN(c2cnc(=O)[nH]c2C)C(=O)c2ccc(OC(F)(F)F)cc21", "≤ 100 nM"],
  ["Cc1[nH]c(=O)ccc1N1CN(c2ccc(F)cc2C2CC2)c2cc(C(F)(F)F)ccc2C1=O", "≤ 100 nM"]
]}

Problem: Please look up its IC50: "Cc1cc(F)ccc1N1CN(c2ccc(=O)[nH]c2C)C(=O)c2c(C(F)F)cccc21"
Solution: 126 to 631 nM
